tested on: K562 CRISPRi cells; assay: Constant region variant library pooled growth screen, K562; format: cell-based, human; conditions: sgRNA constant region variants; relative to the original, un-modified constant region cr995; CRISPRi

MOLECULE	Mean relative activity
cr398 (nucleic acid, listed as DNA, chemistry not fully specified) guide: GTTTAAGAGCTAAGCTGGAAACAGCATAGCAAGTTTGAATAAGGCTAGTCCGTTATCAACTTGAAAAAGTGGCACCGAGTCGGTGCT	0.3667
cr190 (nucleic acid, listed as DNA, chemistry not fully specified) guide: GTTTAAGAGCTAAGCTGGAAACAGCATAGCAAGTTTAAATAAGGCTAGTCCGTAATTAACTTGAAAAAGTGGCACCGAGACGGTGCT	0.5036
cr343 (nucleic acid, listed as DNA, chemistry not fully specified) guide: GTTTAAGAGCTAAGCTGGAAACAGCATAGCAAGTTTAAATAAGGCTAGTCCGTTATCATGAAGAAAATGAGGCACCGAGTCGGTGCT	0.3733
cr675 (nucleic acid, listed as DNA, chemistry not fully specified) guide: GTTTAAGAGCTAAGCTGGAAACAGCATAGCAAGCTTAAATAAGGCTAGTCCGTTATCACCTTGAAAAAGGGGCACCGAGTCGGTGCT	0.5084
cr182 (nucleic acid, listed as DNA, chemistry not fully specified) guide: GTTTAAGAGCTAAGCTGGAAACAGCATAGCAATTTTAAATAAGGCTAGTCCGTTATCAACTTGAAAAAGTGGCACCGAGTCGGTGCT	0.3559
cr804 (nucleic acid, listed as DNA, chemistry not fully specified) guide: GTTTAAGAGCTAAGCTGGAAACAGCATAGCAAGCTTAAATAAGGCTAGTCCGTTATCAACTTGAAAAAGTGACACCGAGTCGGTGTT	0.4025
cr296 (nucleic acid, listed as DNA, chemistry not fully specified) guide: GTTTAAGAGCTAAGCTGGAAACAGCATAGCAAGTTTAAATAAGGCTAGTCCGTTATCAACTTGAAAAAGTGGTACGCAGTGCGTACT	0.3911
